These entries and their values trace back to patent US8329454B2.

# Tested on: cholinesterase
# TEST_DESCRIPTION: Visual detection with the cholinesterase detection device after on-column NBS oxidation (Example 1)
# RUN_CONDITIONS: Table 1, tested in the same manner as Example 1 (NBS oxidation)
PROPERTY_LABEL: Detection Level (ppb)
Just the number please, in ppb, no unit attached.

Problem: For cholinesterase, provide Detection Level (ppb) of CNC(=O)/C=C(\C)OP(=O)(OC)OC please.
Result: 100

---
Problem: For cholinesterase, provide Detection Level (ppb) of CCOP(=S)(OCC)Oc1cc(Cl)c(Br)cc1Cl please.
Result: 10

Problem: For cholinesterase, provide Detection Level (ppb) of COP(=S)(OC)Oc1ccc([N+](=O)[O-])c(C)c1 please.
Result: 40

Problem: For cholinesterase, provide Detection Level (ppb) of CCCSP(=S)(OCC)Oc1ccc(SC)cc1 (centres unmarked) please.
Result: 20

Problem: For cholinesterase, provide Detection Level (ppb) of CCOP(=S)(OCC)Oc1ccc([N+](=O)[O-])cc1 please.
Result: 0.8

Problem: For cholinesterase, provide Detection Level (ppb) of COP1(=S)OCc2ccccc2O1 (centres unmarked) please.
Result: 100

Problem: For cholinesterase, provide Detection Level (ppb) of CCOP(=S)(OCC)Oc1ccc(Cl)cc1Cl please.
Result: 100

Problem: For cholinesterase, provide Detection Level (ppb) of CCOP(=S)(OCC)SCSCC [phorate] please.
Result: 80

Problem: For cholinesterase, provide Detection Level (ppb) of COP(=O)(OC)O/C(=C/Cl)c1ccc(Cl)cc1Cl [dimethylvinphos(E)] please.
Result: 100

Problem: For cholinesterase, provide Detection Level (ppb) of CCOP(=S)(OCC)Oc1ccc2c(C)c(Cl)c(=O)oc2c1 please.
Result: 2

Problem: For cholinesterase, provide Detection Level (ppb) of CCCOP(=O)(OCCC)Oc1ccc(SC)cc1 please.
Result: 1
